Tested on: Calu-3
protocol description: drug sensitivity score (DSS) for viability; higher = more toxic; extreme values may be limits of the assay
test parameters: 72 h
reported metric: drug sensitivity score

[[record]]
molecule = "Cc1cc(-n2c(=O)[nH]c(=O)n(C)c2=O)ccc1Oc1ccc(SC(F)(F)F)cc1"
measured_value = 0

[[record]]
molecule = "Cc1[nH]c2ccccc2c1CCNC(=O)c1cccs1"
measured_value = 0

[[record]]
molecule = "O=C(CCCCC(=O)Nc1c(I)cc(I)c(C(=O)O)c1I)Nc1c(I)cc(I)c(C(=O)O)c1I [iodipamide]"
measured_value = 0

[[record]]
molecule = "COc1ccc(CCC(=O)Nc2nc3ccc(Cl)cc3s2)cc1OC"
measured_value = 0.1

[[record]]
molecule = "CN(NC(=O)CC(=O)NN(C)C(=S)c1ccccc1)C(=S)c1ccccc1"
measured_value = 0


Request: Please report the measured drug sensitivity score for `CN(C)CCOc1ccc(/C(=C(/CCCl)c2ccccc2)c2ccccc2)cc1`
Response: 5.7

Request: Identify measured drug sensitivity score corresponding to `CN1C(=O)OC(C)(C)C1=O`
Response: 0

* * *

Tested on: A549-ACE2
protocol description: drug-induced phospholipidosis relative to tamoxifen; higher = more phospholipidosis
test parameters: 0.3 µM; 24 h
Label condition met for high-side drug-induced phospholipidosis (at or above 6%) and condition not met for low-side drug-induced phospholipidosis (below it).

[[record]]
molecule = "c1ccc2c(CCNc3ccc(Nc4ccncc4)cc3)c[nH]c2c1"
category = "condition not met"

[[record]]
molecule = "NC(=O)c1cnc(N[C@@H]2CCCC[C@@H]2N)nc1Nc1cccc(-n2nccn2)c1"
category = "condition not met"

[[record]]
molecule = "CCOC(=O)c1c(C)[nH]c2ccc3c(c12)CN1CCc2cc(OC)ccc2C1O3 (configuration not stated)"
category = "condition not met"

[[record]]
molecule = "CCCC[C@@H](C=O)NC(=O)[C@H](CC(C)C)NC(=O)OCc1ccccc1"
category = "condition not met"


Request: Kindly determine if drug-induced phospholipidosis recorded for `Clc1ccccc1CNC[C@H]1CC[C@H](CNCc2ccccc2Cl)CC1` is above or exactly 6%.
Response: condition met

Request: Textbook exercise: given the entry `O=C(OC(C(F)(F)F)C(F)(F)F)N1CCN(Cc2cccc(Oc3ccccc3)c2)CC1` , state whether its drug-induced phospholipidosis is greater than or equal to 6%.
Response: condition met

Request: Reported drug-induced phospholipidosis at or above 6%? OC(c1cc(C(F)(F)F)nc2c(C(F)(F)F)cccc12)C1CCCCN1 (configuration not stated)
Response: condition not met

* * *

Test system: Caco-2
protocol description: cell viability relative to DMSO; higher = less toxic
test parameters: 72 h; 100 nM
reported metric: cell viability (%)
Response body: numeric value in %, unit text excluded.

[[record]]
molecule = "CC(Oc1ccc(O)cc1)(P(=O)(O)O)P(=O)(O)O"
measured_value = 98


Request: Recall the reported cell viability of `C[C@H](NC(=O)Cc1cc(F)cc(F)c1)C(=O)N[C@H](C(=O)OC(C)(C)C)c1ccccc1` when tested on Caco-2.
Response: 116

Request: Please tell me the measured cell viability for Cc1ccc2c(c1)C(=O)[C@]1(O)CCN(c3ccccc3)C1=N2 (racemic) [blebbistatin-(+/-)] ; system: Caco-2.
Response: 97.9

Request: Quote Caco-2 cell viability for entry COc1cc(C[C@@H](CO[C@@H]2O[C@H](CO)[C@@H](O)[C@H](O)[C@H]2O)[C@H](CO[C@@H]2O[C@H](CO)[C@@H](O)[C@H](O)[C@H]2O)Cc2ccc(O)c(OC)c2)ccc1O [secoisolariciresinol-diglucoside] .
Response: 96.7

Request: Name the value of cell viability reported for `CC1=NN=C(c2ccc(N)cc2)c2cc3c(cc2C1)OCO3` when tested on Caco-2.
Response: 107

Request: Using Caco-2 as the test system, report measured cell viability of CC(C)C(=O)SCCCCC[C@H](NC(=O)OC(C)(C)C)C(=O)NC12CC3CC(CC(C3)C1)C2 [TCS-HDAC6-20b] .
Response: 95.5

Request: State the measured cell viability (Caco-2) of COc1cc2c(cc1OC)C1CC(=O)C(CC(C)C)CN1CC2 (configuration not stated)
Response: 96.3

Request: Fill in cell viability for `NC(=O)c1ccc2[nH]ccc2c1` tested with Caco-2.
Response: 100

Request: Give the observed cell viability of `NC1=N[C@@]2(c3cc(NC(=O)c4ccc(F)cn4)ccc3F)COC[C@H]2CS1` for Caco-2.
Response: 101
